Target Entity: proteins in rat lung membranes
Measurement Notes: Competitive binding assay with [3H]-CP2117 on rat lung membranes (RLM)
Recorded Conditions: given as Log IC50 (negative values); displacement of 10 nM [3H]-CP2117, overnight at 4° C.; ND- not detected
Measurement Name: Log IC50 RLM binding

{"Smiles Repr": "COc1ccc(/C(C)=N/OCc2cccc(OC(F)(F)F)c2)cc1O", "Log IC50 RLM binding": "−6.41"}
{"Smiles Repr": "COc1cc([C@H]2CC[C@@](C)(CO)CC2)c(C(C)=NOCc2ccc3nonc3c2)cc1O", "Log IC50 RLM binding": "−5.81"}
{"Smiles Repr": "COc1cc(-c2ccc(F)cc2)c(/C(C)=N/OCc2ccc([N+](=O)[O-])cc2)cc1O", "Log IC50 RLM binding": "−5.43"}
{"Smiles Repr": "COc1ccc(/C(C)=N/OCc2cc(F)cc(F)c2)cc1O", "Log IC50 RLM binding": "−6.86"}
{"Smiles Repr": "COC(=O)c1ccc(CO/N=C(\\C)c2ccc(OC)c(O)c2)cc1", "Log IC50 RLM binding": "−6.46"}
{"Smiles Repr": "COc1cc(C2CCCCC2)c(C(C)=NOCc2ccc([N+](=O)[O-])cc2)cc1O", "Log IC50 RLM binding": "−6.18"}

* * *

Target Entity: proteins in rat lung membranes
Measurement Notes: Competitive binding assay with [3H]-CP2117 on rat lung membranes (RLM)
Recorded Conditions: given as Log IC50 (negative values); displacement of 10 nM [3H]-CP2117, overnight at 4° C.; ND- not detected
Measurement Name: Log IC50 RLM binding

{"Molecule": "COc1ccc(-c2cc(OC)c(O)cc2/C(C)=N/OCc2ccc([N+](=O)[O-])cc2)cc1", "Log IC50 RLM binding": "−6.88"}

I. COc1ccc(/C(C)=N/OCc2cccc(C)c2)cc1O
II. Brc1cc2c(cc1/C=N/OCc1ccccc1)OCO2 [Compound 10-OK-07a]
Prompt: Exercise: compare I and II ; which one has the greater Log IC50 RLM binding? Respond using the label that marks the chosen record.
Completion: II
(II: −4.76, I: −6.96)

* * *

Target Entity: proteins in rat lung membranes
Measurement Notes: Competitive binding assay with [3H]-CP2117 on rat lung membranes (RLM)
Recorded Conditions: given as Log IC50 (negative values); displacement of 10 nM [3H]-CP2117, overnight at 4° C.; ND- not detected
Measurement Name: Log IC50 RLM binding

{"Molecule": "COc1cc2c(cc1O)/C(=N/OCc1ccc3nonc3c1)CCC2", "Log IC50 RLM binding": "−6.91"}
{"Molecule": "COc1ccc(/C(C)=N/OCc2cccc(F)c2)cc1O", "Log IC50 RLM binding": "−6.88"}
{"Molecule": "COc1ccc(/C(C)=N/OCc2ccc3nonc3c2)cc1OC", "Log IC50 RLM binding": "−4.74"}
{"Molecule": "COc1ccc(/C(C)=N/OCc2ccc(F)cc2)cc1O", "Log IC50 RLM binding": "−6.9"}
{"Molecule": "COc1cc([C@H]2CC[C@](C)(CO)CC2)c(C(C)=NOCc2ccc3nonc3c2)cc1O", "Log IC50 RLM binding": "−5.54"}
{"Molecule": "COc1cc2c(cc1O)/C(=N/OCc1ccc([N+](=O)[O-])cc1)CCC2", "Log IC50 RLM binding": "−6.48"}
{"Molecule": "COc1cc(-c2ccc(C)cc2)c(/C(C)=N/OCc2ccc([N+](=O)[O-])cc2)cc1O", "Log IC50 RLM binding": "−6.33"}
{"Molecule": "COc1ccc(C(=NOCc2ccc([N+](=O)[O-])cc2)[C@H]2CC[C@H](CCO)CC2)cc1O", "Log IC50 RLM binding": "−5.75"}
{"Molecule": "COc1cc([C@H]2CC[C@](C)(CO)CC2)c(C(C)=NOCc2ccc([N+](=O)[O-])cc2)cc1O [CP30450B]", "Log IC50 RLM binding": "−5.85"}
{"Molecule": "COc1cc(-c2ccccc2)c(/C(C)=N/OCc2ccc([N+](=O)[O-])cc2)cc1O", "Log IC50 RLM binding": "−6.2"}
{"Molecule": "COc1ccc(/C(C)=N/OCc2ccc([N+](=O)[O-])cc2)cc1O", "Log IC50 RLM binding": "−6.44"}
{"Molecule": "COc1cc2c(cc1O)/C(=N/OCc1ccc([N+](=O)[O-])cc1)CC2", "Log IC50 RLM binding": "−6.16"}
{"Molecule": "COc1cc2c(cc1OS(N)(=O)=O)C(=NOCc1ccc([N+](=O)[O-])cc1)C(C)(C)CC2", "Log IC50 RLM binding": "−4.58"}
{"Molecule": "COc1ccc(/C(C)=N/OCc2ccc(F)c(F)c2)cc1O", "Log IC50 RLM binding": "−6.16"}
{"Molecule": "COc1ccc(/C(C)=N/OCc2ccc(C#N)cc2)cc1O", "Log IC50 RLM binding": "−6.05"}
{"Molecule": "COc1ccc(C(=NOCc2ccc([N+](=O)[O-])cc2)[C@H]2CC[C@@H](CCO)CC2)cc1O [CP30348-2]", "Log IC50 RLM binding": "−5.6"}
{"Molecule": "COc1ccc(C(=NOCc2ccc([N+](=O)[O-])cc2)[C@H]2CC[C@@H](CCO)CC2)cc1O [CP30348-1]", "Log IC50 RLM binding": "−6.02"}
{"Molecule": "COc1cc([C@H]2CC[C@](C)(CO)CC2)c(C(C)=NOCc2ccc([N+](=O)[O-])cc2)cc1O [CP30450A]", "Log IC50 RLM binding": "−5.81"}

* * *

System: human airway smooth muscle (HASM) cells
Measurement Notes: Proliferation of human airway smooth muscle cells in response to thrombin (cell counting)
Assay type: cell-based
Recorded Conditions: given as Log IC50 (negative values), thrombin 0.3 U/ml, 48 h, compound pre-incubated 30 minutes
Measurement Name: pIC50
To interpret pIC50, take it as minus log10 of a concentration measured in moles per litre.

Please review the following examples before continuing.
{"Compound": "CCC(=NOCc1ccc([N+](=O)[O-])cc1)c1ccc(OC)c(O)c1", "Target Entity": "human airway smooth muscle (HASM) cells", "pIC50": 5.54}
{"Compound": "COc1cc(I)c(C(C)=NOCc2ccc([N+](=O)[O-])cc2)cc1O [CP30220-minor (Z-)]", "Target Entity": "human airway smooth muscle (HASM) cells", "pIC50": 7.41}
{"Compound": "CCC(=NOCc1ccc([N+](=O)[O-])cc1)c1cc(O)c(OC)cc1I", "Target Entity": "human airway smooth muscle (HASM) cells", "pIC50": 8.08}

Prompt: I would be grateful if you could share the reported pIC50 for `COc1ccc(/C(C)=N/OCc2ccc([N+](=O)[O-])cc2)cc1O` .
Completion: 5.23

* * *

Tested on: PGE2 release in U937 cells
Measurement Notes: PGE2 release from PMA-treated U937 cells (radioimmunoassay)
Format: cell-based, human
Recorded Conditions: Homo sapiens, U-937, 24 h, 24 hour incubation, read-out: Effects on PGE2 release in U937 cells at 1 μM as a % of PMA control, mean
Measurement Name: activity at 1 µM (%)
Enter your answer as a number in %; do not include the unit.

Please review the following examples before continuing.
{"Compound": "COc1cc2c(cc1OS(N)(=O)=O)C(=NOCc1ccc([N+](=O)[O-])cc1)C(C)(C)CC2", "activity at 1 µM, %": 113}
{"Compound": "COc1cc([C@H]2CC[C@](C)(CO)CC2)c(C(C)=NOCc2ccc([N+](=O)[O-])cc2)cc1O [CP30450A]", "activity at 1 µM, %": 80}
{"Compound": "COc1ccc(C(C)=NOCc2ccc3nonc3c2)cc1OS(N)(=O)=O", "activity at 1 µM, %": 43}

Now for a further compound.
Prompt: I would be grateful if you could share the reported activity at 1 µM for `C/C(=N\OCc1ccc2nonc2c1)c1ccc2c(c1)OCO2` .
Completion: 90

* * *

Target Entity: proteins in rat lung membranes
Measurement Notes: Competitive binding assay with [3H]-CP2117 on rat lung membranes (RLM)
Recorded Conditions: given as Log IC50 (negative values); displacement of 10 nM [3H]-CP2117, overnight at 4° C.; ND- not detected
Measurement Name: Log IC50 RLM binding

{"Compound": "COc1cc(/C(C)=N/OCc2ccc3nonc3c2)ccc1OS(N)(=O)=O [AA-1-78]", "Assay Value": "−4.87"}
{"Compound": "COc1ccc(/C(C)=N/OCc2ccccc2F)cc1O [CP30280]", "Assay Value": "−6.5"}
{"Compound": "COc1cc(-c2ccc(C(F)(F)F)cc2)c(/C(C)=N/OCc2ccc([N+](=O)[O-])cc2)cc1O [CP30346]", "Assay Value": "−5.99"}
{"Compound": "COc1cc(/C(C)=N/OCc2ccc([N+](=O)[O-])cc2)ccc1O [CP30261]", "Assay Value": "−6.65"}
{"Compound": "COc1ccc(C(C)=NOCc2ccc3nonc3c2)cc1OS(N)(=O)=O [AA-1-81]", "Assay Value": "−5.25"}
